Just for reference, PubChem BioAssay (NCATS) is where these values come from.

Tested on: CP247
Experiment: qHTS profiling for inhibitors of Plasmodium falciparum proliferation (AID 504749); further: nearly all actives have a fitted effect of over 60% in size
Conditions: P. falciparum in erythrocytes, SYBR Green DNA, 72 h; series mostly up to 28.7 µM
Inconclusive results are not listed. Activity calls are given as the source filed them. The call rests on the fitted dose curve; in most records, active means well fitted inhibition curve with a large enough effect; inconclusive means small, poorly fitted or top-dose-only effect; inactive means flat fitted curve, though single readings scatter.
The categories you may choose from are true (1) for active, false (0) for inactive

Check the results log: what was the call for CC[N+](C)(C)Cc1ccccc1Br ?
false (0)

Check the results log: what was the call for Clc1cc(Cl)c(OCC#CI)cc1Cl ?
true (1)

Check the results log: what was the call for O=C1C(=O)c2ncccc2-c2cccnc21 ?
true (1)

Check the results log: what was the call for COc1cc(-c2ccc(-[n+]3nc(-c4ccccc4)nn3-c3ccc([N+](=O)[O-])cc3)c(OC)c2)ccc1-[n+]1nc(-c2ccccc2)nn1-c1ccc([N+](=O)[O-])cc1 ?
true (1)

Check the results log: what was the call for CCCCC(C)(O)C/C=C/[C@H]1[C@H](O)CC(=O)[C@@H]1CCCCCCC(=O)OC (some centres not stated) ?
false (0)

Check the results log: what was the call for CCCC(=O)Nc1ncnc2c1ncn2C1OC2COP(=O)(O)OC2C1OC(=O)CCC (configuration not stated) ?
false (0)

Check the results log: what was the call for CC(NNC(=O)c1ccccc1)c1ccccc1 (configuration not stated) ?
false (0)

Check the results log: what was the call for O=C(O)c1cc(O)c2c(c1)[O][Bi][O]2 ?
false (0)

Check the results log: what was the call for CCCCCCCC(=O)O ?
false (0)

Check the results log: what was the call for CCCCC(=O)O[C@]1(C(=O)CO)[C@H](C)C[C@H]2[C@@H]3CCC4=CC(=O)C=C[C@]4(C)[C@@]3(F)[C@@H](O)C[C@@]21C ?
false (0)

Check the results log: what was the call for Cc1ccccc1 ?
false (0)

Check the results log: what was the call for CC(=O)Oc1c(C)cc(OCC(O)CNC(C)C)c(C)c1C (configuration not stated) ?
false (0)

Check the results log: what was the call for CO[C@H](C(=O)[C@@H](O)[C@@H](C)O)C1Cc2cc3cc(O[C@H]4C[C@@H](O[C@H]5C[C@@H](O)[C@H](O)[C@@H](C)O5)[C@@H](O)[C@@H](C)O4)c(C)c(O)c3c(O)c2C(=O)[C@H]1O[C@H]1C[C@@H](O[C@H]2C[C@@H](O[C@H]3C[C@](C)(O)[C@H](O)[C@@H](C)O3)[C@H](O)[C@@H](C)O2)[C@H](O)[C@@H](C)O1 (some centres not stated) ?
true (1)

Check the results log: what was the call for CCCCCCCC/C=C\CCCCCCCC(=O)O ?
false (0)

Check the results log: what was the call for O=CCCCC=O ?
false (0)

Check the results log: what was the call for COC(=O)CCC(=O)CN ?
false (0)

Check the results log: what was the call for COC(=O)[C@H]1[C@H]2C[C@@H]3c4[nH]c5ccccc5c4CCN3C[C@H]2C[C@@H](OC(=O)c2cc(OC)c(OC)c(OC)c2)[C@@H]1OC ?
true (1)

Check the results log: what was the call for CC1=C(/C=C/C(C)=C/C=C/C(C)=C/C=C/C=C(C)/C=C/C=C(C)/C=C/C2=C(C)C(=O)CCC2(C)C)C(C)(C)CCC1=O ?
false (0)

Check the results log: what was the call for COC(=O)[C@H]1[C@H]2CC3c4[nH]c5ccccc5c4CCN3C[C@@H]2CC[C@@H]1O (some centres not stated) ?
false (0)

Check the results log: what was the call for CN1C(=O)CN2CCc3ccccc3C2c2cc(Cl)ccc21 (configuration not stated) ?
false (0)

Check the results log: what was the call for C=CCSSSCC=C ?
false (0)

Check the results log: what was the call for CCCC(=O)O[C@]1(C(=O)CCl)[C@H](C)C[C@@H]2[C@H]3CCC4=CC(=O)C=C[C@]4(C)[C@@]3(F)C(=O)C[C@@]21C ?
true (1)

Check the results log: what was the call for CC1(C)C(C=C(Cl)Cl)C1C(=O)OCc1cccc(Oc2ccccc2)c1 (configuration not stated) ?
false (0)

Check the results log: what was the call for Oc1cc(O)c2c(c1)OC(c1ccc(O)c(O)c1)C(O)C2 (configuration not stated) ?
false (0)

Check the results log: what was the call for Nc1c(N=Nc2ccc(-c3ccc(N=Nc4cc(S(=O)(=O)O)c5ccccc5c4N)cc3)cc2)cc(S(=O)(=O)O)c2ccccc12 ?
false (0)

Check the results log: what was the call for COC(=O)C1=C(C#N)NC(C)=C(C(=O)OC(C)C)C1c1cccc([N+](=O)[O-])c1 (configuration not stated) ?
true (1)

Check the results log: what was the call for Cc1cc(C(=O)NNCc2ccccc2)no1 ?
false (0)

---

Kindly state max response for each of the entries shown.
Test system: KB-3-1
Experiment: Cytotoxic Profiling of Annotated Libraries Using Quantitative High-Throughput Screening (AID 1296008); further: on the % scale 0 is the no-effect control and ±100 the full control effect; nearly all actives have a fitted effect of over 60% in size
Settings: Five cell lines viability, CellTiter-Glo ATP luminescence, 48-72 h; active compounds read low
Results filed as inconclusive are left out.
Write the number in % without appending the unit.

Would you mind telling me what max response value was observed for COC1=Cc2c(nc3n(c2=O)C(C)C(=O)NC3(O)C(C)C)OC=C1 (stereo not given) ?
6.94

Would you mind telling me what max response value was observed for CC(C)[C@H]1CCC(CO)=C[C@@H]1/C=C(\CO)C(=O)O ?
7.99

Would you mind telling me what max response value was observed for CC1(CO)CC2C(O)C(=O)C3(CO)CC3(C)C2C1 (stereo not given) ?
2.2

Would you mind telling me what max response value was observed for COC(=O)[C@]12C(=O)C(C)=C(O)[C@@]1(C)C(C)=CC1[C@@]34CC[C@@H](OC(C)=O)C(C)(C)C3[C@H](C[C@]12C)OC4=O (stereo not given in full) ?
1.77

Would you mind telling me what max response value was observed for COc1ccc(C2=CC(=O)OC2Cc2ccc(O)cc2)c(O)c1 (stereo not given) ?
6.42

Would you mind telling me what max response value was observed for CCCCC(=O)O[C@]1(C(=O)CO)[C@H](C)C[C@H]2[C@@H]3CCC4=CC(=O)C=C[C@]4(C)[C@@]3(F)[C@@H](O)C[C@@]21C ?
32.2

Would you mind telling me what max response value was observed for COc1cc(C2Oc3c(OC)cc(/C=C/C(=O)OC[C@H]4O[C@@H](OC(C)(C)C(=O)O)[C@H](O)[C@@H](O)[C@@H]4O)cc3C2CO)ccc1O (stereo not given in full) ?
0.492

Would you mind telling me what max response value was observed for CC1NC(=O)C(Cc2c[nH]c3ccccc23)NC1=O (stereo not given) ?
6.79

Would you mind telling me what max response value was observed for COc1cc(C[C@H]2COC(=O)[C@@H]2Cc2ccc(O)c(OC)c2)ccc1O ?
-4.79

Would you mind telling me what max response value was observed for O=C(O)CCC(=O)C(=O)O ?
-11.9

---

System: NIH3T3
Assay: Cytotoxic Profiling of Annotated Libraries Using Quantitative High-Throughput Screening (AID 1296008); further: on the % scale 0 is the no-effect control and ±100 the full control effect; nearly all actives have a fitted effect of over 60% in size
Settings: Five cell lines viability, CellTiter-Glo ATP luminescence, 48-72 h; active compounds read low
Records with an inconclusive call do not appear. Where a SMILES comes first, the peptide text is derived from it. The star is where a group is joined. AFC = O=c1cc(C(F)(F)F)c2ccc(N*)cc2o1
Kindly state max response for each of the entries shown.
Write the number in % without appending the unit.

Would you mind telling me what max response value was observed for CC1(C)O[C@]23C[C@H]1C[C@H](OC(=O)c1ccoc1)[C@]2(C)[C@@H](OC(=O)c1ccoc1)CCC3(C)O (stereo partly specified) ?
-0.102

Would you mind telling me what max response value was observed for COC(=O)C[C@@H]1C(C(=O)O)=CO[C@@H](O[C@@H]2O[C@H](CO)[C@@H](O)[C@H](O)[C@H]2O)/C1=C\COC(=O)/C=C\c1ccccc1 ?
-14.1

Would you mind telling me what max response value was observed for CC(=O)N[C@@H](CC(C)C)C(=O)N[C@@H](CCC(=O)O)C(=O)N[C@@H](CCC(=O)O)C(=O)N[C@@H](CC(=O)O)C(=O)Nc1ccc2c(C(F)(F)F)cc(=O)oc2c1 (Ac-LEED-{AFC}) ?
1.1

Would you mind telling me what max response value was observed for CC(=O)O[C@@H]1[C@H]2[C@@H](OC(=O)c3ccccc3)[C@@H](C)C[C@]2(O)[C@H](OC(C)=O)[C@@]2(C)[C@@H]3CC(C)(C)C(=O)[C@]3(OC(C)=O)C[C@@]12C ?
4.53

Would you mind telling me what max response value was observed for N[C@H]1C[C@H]1c1ccc(-c2cccc(O)c2)cc1 ?
-6.35

Would you mind telling me what max response value was observed for C=C/C=C/[C@@H]1OC[C@H](/C=C/C=C/C)[C@H]1O ?
-1.27

---

Tested on: Zika virus NS2B-NS3 protease (unlinked complex)
Test: Primary screen GU Rhodamine qHTS for Zika virus inhibitors: Unlinked NS2B-NS3 protease assay (AID 1347159); further: nearly all actives have a fitted effect of over 60% in size
Conditions: Recombinant ZIKV NS2B-NS3 protease, Rhodamine110 substrate fluorescence; series mostly up to 107 µM
Records with an inconclusive call do not appear. Activity calls are given as the source filed them. Calls follow the shape of the dose curve; as a rule, active = well fitted inhibition curve with a large enough effect; inconclusive = small, poorly fitted or top-dose-only effect; inactive = no such curve, though single readings can be large or run the other way.
The categories you may choose from are active, inactive

Check the results log: what was the call for CON(C)C(=O)N1N=C(c2cc(F)ccc2F)S[C@@]1(CCCN)c1ccccc1 ?
inactive

Check the results log: what was the call for CC(=O)O[C@@H]1C[C@@]23C[C@@]24CC[C@H](OC2OC[C@@H](O)[C@H](O)[C@H]2O)C(C)(C)[C@@H]4CC[C@H]3[C@]2(C)CC3OC4(C[C@@H](C)C3[C@@]12C)OCC1(C)OC14 (stereo partly specified) ?
inactive

Check the results log: what was the call for C=C1CC/C=C(/CO)C(=O)C[C@@H]2[C@@H]1CC2(C)C ?
inactive

Check the results log: what was the call for CC(C)=CCc1ccc(Oc2c(O)cc(C)cc2CO)c(C(=O)O)c1O ?
active

Check the results log: what was the call for COC(=O)C1=CO[C@@H](O[C@@H]2O[C@H](COC(=O)/C=C/c3cc(OC)c(O)c(OC)c3)[C@@H](O)[C@H](O)[C@H]2O)[C@@H]2C(CO)=CC[C@H]12 ?
inactive

Check the results log: what was the call for N[C@H]1C[C@H]1c1ccc(-c2cccc(O)c2)cc1 ?
inactive

Check the results log: what was the call for Cc1nn(C)c2c1C(c1ccc(C(F)(F)F)cc1)C(C#N)=C(N)O2 (stereo unspecified) ?
inactive

Check the results log: what was the call for CO[C@@H](Cc1ccc(OCCc2nc(-c3ccccc3)oc2C)c2ccsc12)C(=O)O ?
active

Check the results log: what was the call for CC1=C(C)C(=O)OC(C(C)C2C(O)CC3C4C5OC5C5(O)CC(OC6OC(CO)C(O)C(O)C6O)CC(O)C5(C)C4CCC32C)C1 (stereo unspecified) ?
inactive

Check the results log: what was the call for Cc1nc2c(-c3cnc(N)nc3)nc(N3CCOCC3)nc2n1C(C)C ?
inactive

Check the results log: what was the call for CN[C@@H]1[C@@H](O)[C@@H](O[C@@H]2[C@@H](O)[C@H](O[C@H]3O[C@H](CN)[C@@H](O)[C@H](O)[C@H]3O)[C@@H](N)C[C@H]2NC(=O)[C@@H](O)CN)OC[C@]1(C)O ?
inactive
